Values were extracted from paper PMC12677607.

System: Candida albicans ATCC 10231
ASSAY_OVERVIEW: MIC assay (YPD broth)
Format: cell-based
TEST_SETTINGS: Table S11; YPD broth, 30 °C, 16 h, n = 2
Numbered stars: 1 amine (or outer) side, 2 acyl side, 3 side chain; on linkers, the order of the positions; unused ones are H or OH. Bridge positions count the residues as written; N and C are the ends. Square brackets hold non-standard residues; d marks the D form. Peptide text beside a SMILES is read from it. * marks the point of attachment. X3 = CCCCC[C@H](CC(=O)[*:1])O[*:2]; Myristoyl = CCCCCCCCCCCCCC(=O)*; X2 = NC[C@H](Cc1ccc(O)cc1)N*; X1 = CC(C)[C@H](O)CC(=O)*; Orn = NCCC[C@H](N)C(=O)O; Dab = NCC[C@H](N)C(=O)O; Dap = NC[C@H](N)C(=O)O; βAla = NCCC(=O)O
ASSAY_METRIC: MIC Candida albicans ATCC 10231

Query CCCCC[C@@H]1CC(=O)N[C@@H](CN)C(=O)N[C@@H](Cc2ccccc2)C(=O)N[C@@H](CCN)C(=O)N[C@@H]([C@@H](C)O)C(=O)N[C@H](Cc2ccccc2)C(=O)N[C@@H](CN)C(=O)N[C@H](CC(C)C)C(=O)N[C@@H](C(C)C)C(=O)N[C@@H](CC(=O)O)C(=O)O1 [synAQU3-cFA] ([Dap]F[Dab]T[dF][Dap][dL]VD; linker N-C via X3) yields MIC Candida albicans ATCC 10231 of 32 µg/mL

Query CCCCCCCCCCCCCC(=O)N[C@@H](Cc1ccccc1)C(=O)N[C@@H](CCCN)C(=O)N[C@H]1CCCNC(=O)CNC(=O)[C@H](CCN)NC(=O)[C@@H](Cc2ccc(O)cc2)NC(=O)[C@H](CC(C)C)NC(=O)[C@H]([C@@H](C)CC)NC(=O)[C@@H](C(C)C)NC1=O [synAQU2-C3] (Myristoyl-F[Orn][Orn][dV]IL[dY][Dab]G; lactam 3-C) yields MIC Candida albicans ATCC 10231 of > 64 µg/mL

Query CC[C@H](C)[C@H](NC(=O)[C@@H](NC(=O)[C@@H](C)NC(=O)[C@H](C)NC(=O)[C@@H](NC(=O)C[C@@H](O)C(C)C)C(C)C)[C@@H](C)CC)C(=O)NCCC(=O)N[C@@H](CC(C)C)C(=O)N[C@H](C)C(=O)N[C@H](C(=O)N[C@H](CN)Cc1ccc(O)cc1)[C@@H](C)CC [synAQU4-L] (X1-VA[dA]II[βAla]L[dA]I-X2) yields MIC Candida albicans ATCC 10231 of > 64 µg/mL

----------
Test system: Acinetobacter baumannii ATCC 17978
ASSAY_OVERVIEW: microbe, parasite or virus in culture
Format: cell-based
TEST_SETTINGS: ATCC 17978, 16 h
Numbered stars: 1 amine (or outer) side, 2 acyl side, 3 side chain; on linkers, the order of the positions; unused ones are H or OH. Bridge positions count the residues as written; N and C are the ends. Square brackets hold non-standard residues; d marks the D form. Peptide text beside a SMILES is read from it. * marks the point of attachment. X3 = CCCCC[C@H](CC(=O)[*:1])O[*:2]; Myristoyl = CCCCCCCCCCCCCC(=O)*; dOrn = NCCC[C@@H](N)C(=O)O; Orn = NCCC[C@H](N)C(=O)O; Dab = NCC[C@H](N)C(=O)O; Dap = NC[C@H](N)C(=O)O
For each entry below, report its MIC Acinetobacter baumannii ATCC 17978 value.
Write the number in µg/mL without appending the unit.

Query CCCCC[C@@H]1CC(=O)N[C@@H](CN)C(=O)N[C@@H](Cc2ccccc2)C(=O)N[C@@H](CCN)C(=O)N[C@@H]([C@@H](C)O)C(=O)N[C@H](Cc2ccccc2)C(=O)N[C@@H](CN)C(=O)N[C@H](CC(C)C)C(=O)N[C@@H](C(C)C)C(=O)N[C@@H](CC(=O)O)C(=O)O1 [synAQU3-cFA] ([Dap]F[Dab]T[dF][Dap][dL]VD; linker N-C via X3) yields MIC Acinetobacter baumannii ATCC 17978 of 64

Query CCCCCCCCCCCCCC(=O)N[C@@H](CCCN)C(=O)N[C@H](Cc1ccc(O)cc1)C(=O)N[C@@H](C(=O)N[C@@H](C(=O)N[C@H](CCCN)C(=O)N[C@@H](CCCN)C(=O)N[C@@H](C(=O)N[C@H](C(=O)N[C@@H](CC(C)C)C(=O)N[C@H](CCCN)C(=O)N[C@H](C(=O)N[C@@H](C)C(=O)O)[C@@H](C)O)[C@@H](C)CC)C(C)C)[C@H](C)O)C(C)C [synAQU6-L] (Myristoyl-[Orn][dY][dV][dT][dOrn][Orn][dV]IL[dOrn]TA-OH) yields MIC Acinetobacter baumannii ATCC 17978 of 32

Query CCCCCCCCCCCCCC(=O)N[C@@H](CN)C(=O)N[C@H](C(=O)N[C@@H](CC(C)C)C(=O)N[C@@H](CO)C(=O)N[C@@H](CCN)C(=O)N[C@@H](CN)C(=O)N[C@@H](Cc1ccccc1)C(=O)N[C@H](C(=O)N[C@@H](CCCN)C(=O)N[C@@H](CC(N)=O)C(=O)N[C@@H](Cc1ccccc1)C(=O)O)[C@@H](C)CC)[C@@H](C)O [synAQU5-L] (Myristoyl-[Dap]TLS[Dab][Dap]FI[Orn]NF-OH) yields MIC Acinetobacter baumannii ATCC 17978 of 4

Query CCCCCCCCCCCCCC(=O)N[C@@H](Cc1ccccc1)C(=O)N[C@@H](CCCN)C(=O)N[C@H]1CCCNC(=O)CNC(=O)[C@H](CCN)NC(=O)[C@@H](Cc2ccc(O)cc2)NC(=O)[C@H](CC(C)C)NC(=O)[C@H]([C@@H](C)CC)NC(=O)[C@@H](C(C)C)NC1=O [synAQU2-C3] (Myristoyl-F[Orn][Orn][dV]IL[dY][Dab]G; lactam 3-C) yields MIC Acinetobacter baumannii ATCC 17978 of 4

----------
Test system: Shigella Castellani LXX
ASSAY_OVERVIEW: MIC assay (broth micro-dilution)
Assay type: cell-based
TEST_SETTINGS: Table S11; LB broth, 37 °C, 16 h, n = 2
Numbered stars: 1 amine (or outer) side, 2 acyl side, 3 side chain; on linkers, the order of the positions; unused ones are H or OH. Bridge positions count the residues as written; N and C are the ends. Square brackets hold non-standard residues; d marks the D form. Peptide text beside a SMILES is read from it. X3 = CCCCC[C@H](CC(=O)[*:1])O[*:2]; Dab = NCC[C@H](N)C(=O)O; Dap = NC[C@H](N)C(=O)O
ASSAY_METRIC: MIC Shigella Castellani LXX (µg/mL)
Write the number in µg/mL without appending the unit.

Query CCCCC[C@@H]1CC(=O)N[C@@H](CN)C(=O)N[C@@H](Cc2ccccc2)C(=O)N[C@@H](CCN)C(=O)N[C@@H]([C@@H](C)O)C(=O)N[C@H](Cc2ccccc2)C(=O)N[C@@H](CN)C(=O)N[C@H](CC(C)C)C(=O)N[C@@H](C(C)C)C(=O)N[C@@H](CC(=O)O)C(=O)O1 [synAQU3-cFA] ([Dap]F[Dab]T[dF][Dap][dL]VD; linker N-C via X3) yields MIC Shigella Castellani LXX of 64

----------
System: Klebsiella pneumoniae NCTC 5056
ASSAY_OVERVIEW: microbe, parasite or virus in culture
Format: cell-based
TEST_SETTINGS: NCTC 5056, 16 h
Bridge positions count the residues as written; N and C are the ends. Square brackets hold non-standard residues; d marks the D form. Peptide text beside a SMILES is read from it. * marks the point of attachment. Myristoyl = CCCCCCCCCCCCCC(=O)*; X2 = NC[C@H](Cc1ccc(O)cc1)N*; dOrn = NCCC[C@@H](N)C(=O)O; X1 = CC(C)[C@H](O)CC(=O)*; Orn = NCCC[C@H](N)C(=O)O; Dab = NCC[C@H](N)C(=O)O; Dap = NC[C@H](N)C(=O)O; βAla = NCCC(=O)O
ASSAY_METRIC: MIC Klebsiella pneumoniae NCTC 5056

Entry CCCCCCCCCCCCCC(=O)N[C@@H](CN)C(=O)N[C@H](C(=O)N[C@@H](CC(C)C)C(=O)N[C@H]1COC(=O)[C@H](Cc2ccccc2)NC(=O)[C@H](CC(N)=O)NC(=O)[C@H](CCCN)NC(=O)[C@H]([C@@H](C)CC)NC(=O)[C@H](Cc2ccccc2)NC(=O)[C@H](CN)NC(=O)[C@H](CCN)NC1=O)[C@@H](C)O [synAQU5-C4] (Myristoyl-[Dap]TLS[Dab][Dap]FI[Orn]NF; ester 4-C) , Klebsiella pneumoniae NCTC 5056 data, MIC Klebsiella pneumoniae NCTC 5056 value: > 64 µg/mL

Entry CCCCCCCCCCCCCC(=O)N[C@@H](CCCN)C(=O)N[C@H](Cc1ccc(O)cc1)C(=O)N[C@@H](C(=O)N[C@H]1C(=O)N[C@H](CCCN)C(=O)N[C@@H](CCCN)C(=O)N[C@H](C(C)C)C(=O)N[C@@H]([C@@H](C)CC)C(=O)N[C@@H](CC(C)C)C(=O)N[C@H](CCCN)C(=O)N[C@@H]([C@@H](C)O)C(=O)N[C@@H](C)C(=O)O[C@H]1C)C(C)C [synAQU6-C4] (Myristoyl-[Orn][dY][dV][dT][dOrn][Orn][dV]IL[dOrn]TA; ester 4-C) , Klebsiella pneumoniae NCTC 5056 data, MIC Klebsiella pneumoniae NCTC 5056 value: 32 µg/mL

Entry CCCCCCCCCCCCCC(=O)N[C@@H](CCCN)C(=O)N[C@H](Cc1ccc(O)cc1)C(=O)N[C@@H](C(=O)N[C@@H](C(=O)N[C@H](CCCN)C(=O)N[C@@H](CCCN)C(=O)N[C@@H](C(=O)N[C@H](C(=O)N[C@@H](CC(C)C)C(=O)N[C@H](CCCN)C(=O)N[C@H](C(=O)N[C@@H](C)C(=O)O)[C@@H](C)O)[C@@H](C)CC)C(C)C)[C@H](C)O)C(C)C [synAQU6-L] (Myristoyl-[Orn][dY][dV][dT][dOrn][Orn][dV]IL[dOrn]TA-OH) , Klebsiella pneumoniae NCTC 5056 data, MIC Klebsiella pneumoniae NCTC 5056 value: > 64 µg/mL

Entry CC[C@H](C)[C@H](NC(=O)[C@@H](NC(=O)[C@@H](C)NC(=O)[C@H](C)NC(=O)[C@@H](NC(=O)C[C@@H](O)C(C)C)C(C)C)[C@@H](C)CC)C(=O)NCCC(=O)N[C@@H](CC(C)C)C(=O)N[C@H](C)C(=O)N[C@H](C(=O)N[C@H](CN)Cc1ccc(O)cc1)[C@@H](C)CC [synAQU4-L] (X1-VA[dA]II[βAla]L[dA]I-X2) , Klebsiella pneumoniae NCTC 5056 data, MIC Klebsiella pneumoniae NCTC 5056 value: > 64 µg/mL
